# Tested on: HL-60(TB) leukemia
# assay-text: NCI-60 one-dose screen, 48 h (100 = growth as untreated, 0 = no growth, -100 = all killed)
# experimental-parameters: 10 µM unless noted
About 83,000 compounds went through this panel and 20% of them were active in at least one assay; those are over-represented in the sample as a whole.
Cut-off 60% on growth: below means true (1), at or above means false (0).

Past entries and their recorded results:
COc1ccc(C)c2sc(N(Cc3cccnc3)C(=O)c3ccc(C#N)cc3)nc12; true (1)
COc1ccc2c(c1)CC[C@@H]1[C@@H]2CC[C@]2(C)C3C(=CC(COC(C)=O)C4C(=O)N(c5ccc(Cl)cc5)C(=O)C43)C[C@@H]12 (stereo partly specified); false (0)
COc1ccc(CC(=O)c2ccc(O)cc2O)cc1; false (0)
COc1ccc([C@@H]2[C@@H](Cl)C(=O)N2c2cc(OC)c(OC)c(OC)c2)cc1C; true (1)
c1ccc(Nc2nc(Nc3ccccc3)nc(Nc3ccccc3)n2)cc1; false (0)

Field: next compound
INPUT: Bench note: check whether O=C1CCC(C(=O)NCCNCCNC(=O)C2CCC(=O)N2)N1 (stereo unspecified) shows growth below 60%
OUTPUT: false (0)
